- Tested on: MDA-MB-468 breast
- Method Notes: NCI tumour cell line growth inhibition, 48 h
Assign TGI to each entry below.
Answer in µM, number only, no unit symbol.

IN: Any idea what TGI came out for CCN(CCc1ccc(F)cc1)c1ccc(CO)c(Cl)c1 on MDA-MB-468 breast?
OUT: 0.724

IN: Any idea what TGI came out for COc1ccc(CNCCCN2C(=O)c3ccc4c5c(ccc(c35)C2=O)C(=O)N(CCCNCCCCNCCCN)C4=O)c(OC)c1OC on MDA-MB-468 breast?
OUT: 0.334

IN: Any idea what TGI came out for COc1cccc2c1[C@H](OC)[C@]13O[C@@]1(C2=O)[C@H](O)[C@H](C)[C@@](O)(C(=O)[C@@H]1O[C@H]1C)[C@@H]3O on MDA-MB-468 breast?
OUT: 0.48

IN: Any idea what TGI came out for CN([N-]C(=O)CC(=O)[N-]N(C)C(=S)c1ccccc1)C(=S)c1ccccc1.[Cu+2] on MDA-MB-468 breast?
OUT: 0.0386

IN: Any idea what TGI came out for CCCN(CCC)c1ccc(C=O)c(OC)c1 on MDA-MB-468 breast?
OUT: 63

IN: Any idea what TGI came out for C=C(C)[C@@H]1CC[C@]2(C)[C@H](CC=C3[C@@H]4CC(C)(C)CC[C@]4(C(=O)OC)CC[C@]32C)[C@@]1(C)CC/C(N)=N/O on MDA-MB-468 breast?
OUT: 5.06

IN: Any idea what TGI came out for Cc1cc2cc(Oc3ccnc(Nc4cccc(CS(=O)(=O)NCCN(C)C)c4)n3)ccc2[nH]1 on MDA-MB-468 breast?
OUT: 21.3

----------
- Test system: MDA-MB-468 breast
- Method Notes: NCI tumour cell line growth inhibition, 48 h; in the data active = GI50 below about 0.43 µM; inactive = the rest
Log the outcome using a class from 1 (active), -1 (inactive)

IN: Called result for CCOc1ccccc1[C@H]1C(C(=O)c2ccc(Cl)cc2)C2(N[C@@H]1c1ccccc1)C(=O)Nc1ccc(Cl)cc12 (stereo not given in full)
OUT: -1

IN: Called result for COc1ncnc2c1ncn2C/C(Br)=C(\Br)CCl
OUT: -1

IN: Called result for C=C(C)[C@@H]1CC[C@]2(C)[C@H](CC=C3[C@@H]4CC(C)(C)CC[C@]4(C(=O)OC)CC[C@]32C)[C@@]1(C)CC/C(N)=N/O
OUT: -1

IN: Called result for C=C(C)[C@@H]1CC[C@]2(c3ncc(C)o3)CC[C@]3(C)[C@H](CC[C@@H]4[C@@](C)(CCC#N)[C@H](C(=C)C)CC[C@]43C)[C@@H]12
OUT: -1

IN: Called result for CN1CCN(c2ccc(NC3=C(Cl)C(=O)c4ncccc4C3=O)cc2C(F)(F)F)CC1
OUT: -1

IN: Called result for CCN(CCc1ccc(F)cc1)c1ccc(CO)c(Cl)c1
OUT: 1

IN: Called result for CCN(CC)CCNc1ccc(CO)c2sc3ccccc3c(=O)c12
OUT: -1

IN: Called result for COc1ccc(-n2nc(C)c3c(Nc4ccc(NC(=O)Nc5cc(C(F)(F)F)ccc5F)cc4)ncnc32)cc1
OUT: -1

IN: Called result for Cn1cc(/C=N/Nc2ccnc3cc(Cl)ccc23)c2ccccc21
OUT: 1

IN: Called result for COc1ccc(/C=C2/CCOC2=O)cc1
OUT: -1

----------
Assign TGI to each entry below.
- System: MDA-MB-468 breast
- Method Notes: NCI tumour cell line growth inhibition, 48 h

IN: What value of TGI has been reported for the following molecule? CCOc1ccccc1[C@H]1C(C(=O)c2ccc(Cl)cc2)C2(N[C@@H]1c1ccccc1)C(=O)Nc1ccc(Cl)cc12 (some centres undefined)
OUT: > 18800 nM

IN: What value of TGI has been reported for the following molecule? Cc1cc(C)c(S(=O)(=O)Oc2ccccc2[N+](=O)[O-])c(C)c1
OUT: 5620 nM

IN: What value of TGI has been reported for the following molecule? COc1cccc2c1C(=O)c1c(O)c3c(c(O)c1C2=O)C[C@@](O)(C(=O)COC(=O)c1cccnc1)C[C@@H]3OC1CC(N)C(O)C(C)O1 (some centres undefined)
OUT: 465 nM

IN: What value of TGI has been reported for the following molecule? CCc1nc2cc(/C=C/C(=O)NO)c(F)cc2c(=O)n1CCc1ccccc1
OUT: 2920 nM
